# TEST: Stability of cannabinoid entourage and Vitamin E components of the powder concentrate by LCMSMS
# Assay type: physicochemical
# RECORDED CONDITIONS: powder stored at 21-25° C.; 22 days
PARAMETER MEASURED: Stability of Plant-Derived Cannabinoid Compounds in Powder Concentrate (mg/g powder)
Numbers only, in mg/g powder.

Examples from the recorded data:
{"columns": ["MOLECULE", "MEAS VALUE"],
 "data": [
  ["CCCCCc1cc(O)c2c(c1)OC(C)(CCC=C(C)C)C=C2 (stereo not shown)", 0.071],
  ["CCCc1cc(O)c2c(c1)OC(C)(C)[C@@H]1CCC(C)=C[C@@H]21 [THCV, delta-9-tetrahydrocannabivarin]", 0.703],
  ["C=C(C)[C@@H]1CCC(C)=C[C@H]1c1c(O)cc(CCCCC)cc1O [CBD, cannabidiol, reference compound]", 5.84]
]}

# next molecule below
Problem: Return reported Stability of Plant-Derived Cannabinoid Compounds in Powder Concentrate. Input molecule: CCCCCc1cc(O)c2c(c1)OC1(C)CCC3C1C2C3(C)C (stereo not shown)
Result: 0.051
